test: CC50 reported alongside the CHIKV antiviral assay (cytotoxicity); format: cell-based; details: cell line not given
Exercise: for every item that follows, state its recorded CC50.

Recorded results for 8 compounds are shown here.
compound	CC50
COc1cc2c(cc1NC(=O)C13C[C@H]4C[C@@H](C1)C[C@@H](C3)C4)CCCCC2 [Compound 42]	> 30 µM
CCc1ccc(C(=O)Nc2cc3c(cc2OC)CCCCC3)cc1 [Compound 56]	> 30 µM
COc1cc2c(cc1NC(=O)Cc1cccs1)CCCCC2 [Compound 73]	> 30 µM
COc1cc2c(cc1NC(=O)C1CCOCC1)CCCCC2 [Compound 82]	> 30 µM
COc1cc2c(cc1NC(=O)c1ccc3nonc3c1)CCCCC2 [Compound 40]	> 30 µM
COc1cc2c(cc1NC(=O)c1cccc(C(C)(C)C)c1)CCCCC2 [Compound 41]	> 30 µM
COc1cc2c(cc1NC(=O)c1ccc(C(C)(C)C)s1)CCCCC2 [Compound 38]	32 µM
CC(=O)Oc1cc2c(cc1NC(=O)c1ccc(C(C)(C)C)cc1)CCCCC2 [Compound 16]	> 30 µM

# next compound below
Exercise: Please indicate CC50 recorded for COc1cc2c(cc1NC(=O)c1ccc(F)cc1)CCCCC2 [Compound 78]
Solution: > 30 µM

---

tested on: Chikungunya virus; test: Evaluation of antiviral activity against Chikungunya virus (EC90); assay type: cell-based; conditions: Chikungunya virus, read-out: EC90 (μM) CHIKV, concentration required for 90% inhibition of CHIKV
parameter: log10(EC90) (log10 of the value in µM)
// do not treat as linear: log10 of EC90, unit µM

Completed entries (count: 4):
CC(=O)Oc1cc2c(cc1NC(=O)c1ccc(C(C)(C)C)cc1)CCCCC2 0.45
COc1cc2c(cc1NC(=O)c1cnc(C(C)(C)C)s1)CCCCC2 0.08
COc1cc2c(cc1NC(=O)C13C[C@H]4C[C@@H](C1)C[C@@H](C3)C4)CCCCC2 1.08
CC(C)(C)c1ccc(C(=O)Nc2cc3c(cc2OC(F)(F)F)CCCCC3)cc1 1.14

For every record below, what is its log10(EC90)?
1. COc1cc2c(cc1NC(=O)c1cc(F)c(C(C)(C)C)c(F)c1)CCCCC2
2. CC(C)(C)c1ccc(C(=O)Nc2ccc3c(c2)CCCCC3)cc1

Solution:
[0.52, -0.15]

Hi there! I need log10(EC90) for each item below, if you can.
1. COc1cc2c(cc1NC(=O)Cc1cccs1)CCCCC2
2. COc1cc2c(cc1NC(=O)c1ccc(Cl)cc1I)CCCCC2

Solution:
1: 1.27; 2: 0.79

---

Test: CC50 reported alongside the CHIKV antiviral assay (cytotoxicity)
Type: cell-based
Conditions: cell line not given
Source text: The compounds below in Table 1 were synthesized with methods identical or analogous to those described herein. The requisite starting materials were commercially available, described in the literature, or readily synthesized by one skilled in the art of organic synthesis.
Answer each item with its documented CC50.

# count of solved cases: 10
COc1cc2c(cc1NC(=O)c1ccc(C3(C(F)(F)F)CC3)cc1)CCCCC2 > 30 µM
COc1c(NC(=O)c2cnc(C(C)(C)C)s2)cc2c(c1F)CCCCC2 > 30 µM
CN(C(=O)c1ccc(C(C)(C)C)cc1)c1ccc2c(c1)CCCCC2 > 30 µM
COc1c(NC(=O)c2ccc(C(C)(C)C)cc2)cc2c(c1F)CCCCC2 > 30 µM
COc1cc2c(cc1NC(=O)c1cnc(C)s1)CCCCC2 > 30 µM
CC(C)(C)c1ncc(C(=O)Nc2ccc3c(c2)CCCCC3)s1 15.7 µM
COc1cc2c(cc1NC(=O)c1ccc(C(F)(F)F)cc1)CCCCC2 > 30 µM
COc1cc2c(cc1NC(=O)c1ccc(C3(O)CCC3)cc1)CCCCC2 > 30 µM
COc1cc2c(cc1NC(=O)c1ccc(C(C)(C)C)cc1)CCCCC2 > 30 µM
COc1cc2c(cc1NC(=O)c1ccc(C(=O)O)cc1)CCCCC2 > 30 µM

Hi there! I need CC50 for each item below, if you can.
1. COc1cc2c(cc1NC(=O)c1cc(-c3ccccc3)on1)CCCCC2
2. COc1cc2c(cc1NC(=O)c1ccc(C(C)(C)C#N)cc1)CCCCC2
3. COc1cc2c(cc1NC(=O)c1ccc(N(C)C)cc1)CCCCC2
4. CC(C)(C)c1ccc(C(=O)Nc2cc3c(cc2OCc2ccccn2)CCCCC3)cc1
5. CC(C)(C)c1ccc(C(=O)Nc2cc3c(cc2[N+](=O)[O-])CCCCC3)cc1
6. COc1cc2c(cc1NC(=O)c1ccc(C(C)(C)O)cc1)CCCCC2
7. COc1cc2c(cc1NC(=O)c1cc(C(C)(C)C)c(O)c(C(C)(C)C)c1)CCCCC2
8. COc1cc2c(cc1NC(=O)c1ccc(Cl)cc1)CCCCC2

Solution:
1. > 30 µM
2. 3.57 µM
3. > 30 µM
4. 9.4 µM
5. > 30 µM
6. 79.2 µM
7. > 30 µM
8. > 30 µM

Where do the numbers come from? From patent US10450263B2.
